Value source: PubChem BioAssay (NCI)

Recorded measurements of TGI, one per entry
- Tested on: A498 renal
- Assay: NCI tumour cell line growth inhibition, 48 h

Exercise: What is its TGI for A498 renal? Entry: Nc1cc(Cl)cc2cc(Cl)cnc12
Solution: > 100 µM

Exercise: Reported TGI for A498 renal, given C1C2CC3CC1CC(c1nn4c(C56CC7CC(CC(C7)C5)C6)nnc4s1)(C2)C3 ?
Solution: > 100 µM

Exercise: A498 renal / TGI / CCN(CC)CCN1CC(O)=C(c2nc(-c3ccc(Cl)cc3)cs2)C1=N : value?
Solution: 3.47 µM

Exercise: Notebook entry, A498 renal assay: TGI of CN(C)CCNC(=O)c1cccc(C(=O)Nc2ccccc2)c1[N+](=O)[O-] = ?
Solution: > 100 µM

Exercise: Fill in the recorded TGI for this compound, with A498 renal as test system: [O-][n+]1nc(N2CCOCC2)nc2ccccc21
Solution: > 100 µM

Exercise: Return TGI measured with A498 renal given this compound: Cc1cc(SCC(=O)c2ccccc2)nc2ccccc12
Solution: > 100 µM

Exercise: Return TGI measured with A498 renal given this compound: O=C1C2=Cc3ccccc3CCN2c2ccccc21
Solution: 25.9 µM

Exercise: Tell me reported TGI for COc1cc(C2=NN(C(C)=O)C(c3ccc(OC(C)=O)cc3OC(C)=O)O2)c(OC(C)=O)c2ccccc12 (stereo not given) , tested with A498 renal.
Solution: 11.6 µM

Others:
Exercise: Field: TGI (A498 renal). Entry: O=C(O)CN(c1ccccc1)S(=O)(=O)c1ccccc1[N+](=O)[O-]
Solution: > 100 µM

Exercise: Quick check: TGI on A498 renal, item CC(=O)OC[C@]12CC[C@H]3[C@@H](C[C@H]4O[C@]45[C@@H](O)C=CC(=O)[C@]35C)[C@@H]1CC[C@@H]2[C@H](C)[C@H]1CC(C)=C(C)C(=O)O1 ?
Solution: 2.77 µM

---

- System: SF-268 CNS
- Assay: NCI tumour cell line growth inhibition, 48 h
Listed below: TGI values for each entry.

Exercise: Which TGI reading was recorded for the compound Clc1nc(Cl)c2ncn(Cc3cccc(COc4cccc(OCc5cccc(Cn6cnc7c(Cl)nc(Cl)nc76)c5)c4)c3)c2n1 ?
Solution: > 100 µM

Exercise: // query TGI value for entry CC(=O)OC[C@]12CC[C@H]3[C@@H](C[C@H]4O[C@]45[C@@H](O)C=CC(=O)[C@]35C)[C@@H]1CC[C@@H]2[C@H](C)[C@H]1CC(C)=C(C)C(=O)O1
Solution: 1.28 µM

Exercise: Which TGI value is on record for CCCN(CCc1ccc(-c2ccccc2)cc1)CCc1ccc2n[nH]nc2c1 ?
Solution: 48.7 µM

Exercise: So what's the measured TGI for this one? Nc1ncc(-c2cnn(CCO)c2)c2scc(-c3ccc(NC(=O)Nc4cccc(F)c4)cc3)c12
Solution: 9.73 µM

Exercise: Fill in: TGI of Cc1ccc(S(=O)(=O)n2c(-c3ccccc3)c(-c3ccccc3)c3ccccc32)cc1 is ___
Solution: > 100 µM

Exercise: What does the data say about its TGI? Entry: CCN(CC)C(=O)c1cc(OC(C)C)ccc1-c1c(C)cc(OC(C)C)c(OC)c1OC
Solution: > 100 µM

Exercise: Which TGI value is on record for CCS(=O)(=O)c1ccc(OC)c(Nc2ncc(-c3cccc(C(C)=O)c3)o2)c1 ?
Solution: > 25 µM

# input for lookup
Exercise: Could you share which TGI value was measured for CC[C@@]1(O)C(=O)OCc2c1cc1n(c2=O)Cc2c-1nc1ccccc1c2/C=N\NC(=O)C[n+]1ccccc1 ?
Solution: > 69.5 µM
